Measured ILS % values are reported for all entries that follow.
# System: B16 melanoma (B16)
# Assay remarks: In vivo antitumor assay, B16(ip)
# Design: species or system mice
# Measurement setup: drug ip, qd 1,5,9, exp SD-17, at dose of MTD
Your reply should be a number followed by the unit it is expressed in.

Cc1cc(-c2c(F)cc3c4nn(CCCN(C)C)c(=O)c-4cn(C4CC4)c3c2F)cc(C)n1 | 58%
Cc1cc(-c2c(F)cc3c4nn([C@H]5CC[C@H](N(C)C)CC5)c(=O)c-4cn(C4CC4)c3c2F)cc(C)n1 [Example 51b] | 47%

Q. Request the reported ILS % associated with Cc1cc(-c2c(F)cc3c4nn(CCN(C)C)c(=O)c-4cn(C4CC4)c3c2F)cc(C)n1.O=C(O)/C=C/C(=O)O
A. 85%

Q. Request the reported ILS % associated with Cc1cc(-c2c(F)cc3c4nn(CCNCCO)c(=O)c-4cn(C4CC4)c3c2F)cc(C)n1
A. 61%

Q. Request the reported ILS % associated with Cc1cc(-c2c(F)cc3c4nn([C@H]5CC[C@@H](N(C)C)CC5)c(=O)c-4cn(C4CC4)c3c2F)cc(C)n1 [Example 51a]
A. 29%
